- Test system: Stenotrophomonas maltophilia
- PROTOCOL_TEXT: MIC/MBC against CF isolates (CLSI, alamar blue)
- CONDITION_SET: Stenotrophomonas maltophilia, CF Stenotrophomonas isolate Steno 4
Catalogue of molecules with associated MIC
The reply should contain only the number, in µg/mL.

// known answers, use as guide
>  <MOLECULE>
CO/N=C(\C(=O)N[C@@H]1C(=O)N2C(C(=O)[O-])=C(C[N+]3(C)CCCC3)CS[C@H]12)c1csc(N)n1 [Cefepime]

>  <UNITS>
µg/mL

>  <RECORDED_VALUE>
16

$$$$
>  <MOLECULE>
CO[C@@]1(NC(=O)Cc2cccs2)C(=O)N2C(C(=O)O)=C(COC(N)=O)CS[C@@H]21 [Cefoxitin]

>  <UNITS>
µg/mL

>  <RECORDED_VALUE>
256

$$$$
>  <MOLECULE>
CC(C)(O/N=C(\C(=O)N[C@@H]1C(=O)N2C(C(=O)[O-])=C(C[n+]3ccccc3)CS[C@H]12)c1csc(N)n1)C(=O)O [Ceftazidime]

>  <UNITS>
µg/mL

>  <RECORDED_VALUE>
2

$$$$

Now look at this one.
query: I would be grateful if you could share the reported MIC for C[C@H]1COc2c(N3CCN(C)CC3)c(F)cc3c(=O)c(C(=O)O)cn1c23 [Levofloxacin] .
result: 0.5

###

- Test system: Burkholderia cenocepacia
- PROTOCOL_TEXT: MIC/MBC against CF isolates (CLSI, alamar blue)
- CONDITION_SET: Burkholderia cenocepacia, CF Burkholderia isolate NB23
TEST_READOUT: MIC

// known answers, use as guide
>  <COMPOUND>
C[C@H]1COc2c(N3CCN(C)CC3)c(F)cc3c(=O)c(C(=O)O)cn1c23

>  <MIC>
8 µg/mL

$$$$
>  <COMPOUND>
CO/N=C(\C(=O)N[C@@H]1C(=O)N2C(C(=O)[O-])=C(C[N+]3(C)CCCC3)CS[C@H]12)c1csc(N)n1 [Cefepime]

>  <MIC>
> 32 µg/mL

$$$$
>  <COMPOUND>
NC[C@H]1O[C@H](O[C@H]2[C@H](O)[C@@H](O[C@H]3O[C@H](CO)[C@@H](O)[C@H](N)[C@H]3O)[C@H](N)C[C@@H]2N)[C@H](N)C[C@@H]1O

>  <MIC>
> 32 µg/mL

$$$$
>  <COMPOUND>
CC(C)(O/N=C(\C(=O)N[C@@H]1C(=O)N2C(C(=O)[O-])=C(C[n+]3ccccc3)CS[C@H]12)c1csc(N)n1)C(=O)O

>  <MIC>
> 32 µg/mL

$$$$

Now look at this one.
query: I would be grateful if you could share the reported MIC for CO[C@@]1(NC(=O)Cc2cccs2)C(=O)N2C(C(=O)O)=C(COC(N)=O)CS[C@@H]21 .
result: > 256 µg/mL

###

- Test system: Haemophilus influenzae
- PROTOCOL_TEXT: Susceptibility (MIC/MBC) of H. influenzae clinical isolates
- Format: cell-based
- CONDITION_SET: Haemophilus influenzae, strain 34; nanoemulsion values as μg CPC/ml or μg BA/ml
TEST_READOUT: MIC (µg/mL)
The reply should contain only the number, in µg/mL.

// known answers, use as guide
>  <COMPOUND>
CN(C)[C@@H]1C(O)=C(C(N)=O)C(=O)[C@@]2(O)C(O)=C3C(=O)c4c(O)cccc4[C@@](C)(O)[C@H]3C[C@@H]12 [Tetracycline]

>  <TESTED_SYSTEM>
Haemophilus influenzae

>  <RECORDED_VALUE>
1

$$$$
>  <COMPOUND>
CCC[C@@H]1C[C@@H](C(=O)N[C@@H]([C@H]2O[C@H](SC)[C@H](O)[C@@H](O)[C@H]2O)[C@H](C)Cl)N(C)C1 [clindamycin]

>  <TESTED_SYSTEM>
Haemophilus influenzae

>  <RECORDED_VALUE>
16

$$$$

Now look at this one.
query: I would be grateful if you could share the reported MIC for CC[C@H]1OC(=O)[C@H](C)[C@@H](O[C@H]2C[C@@](C)(OC)[C@@H](O)[C@H](C)O2)[C@H](C)[C@@H](O[C@@H]2O[C@H](C)C[C@H](N(C)C)[C@H]2O)[C@](C)(O)C[C@@H](C)CN(C)[C@H](C)[C@@H](O)[C@]1(C)O [azithromycin] .
result: 1

Where these numbers come from: patent US20100092526A1
